# test: Clearance in ICR mouse at 10 mg/kg, iv measured upto 24 hrs
# Assay type: ADME, organism-based
# test_conditions: in vivo
measured_endpoint: clearance (mL/min/kg)
Just the number please, in mL/min/kg, no unit attached.

q: Looking for the measured clearance of Cl.O=C(CO/N=C1/C(=C2/C(=O)Nc3ccccc32)Nc2ccccc21)N[C@@H]1CCNC1 , can you help?
a: 323

====

Listed next: entries and their corresponding pIC50.
# study_system: Receptor-type tyrosine-protein kinase FLT3 (Homo sapiens, UniProt P36888, D835Y)
# test: Inhibition of human recombinant His-tagged FLT3/D835Y mutant expressed in baculovirus expression system incubated for 30 mins in presence of ATP by HTRF analysis
The meaning of pIC50 here: minus log10 of the concentration in molar units.

# count of solved cases: 3
q: For the molecule Cl.O=C(CO/N=C1/C(=C2/C(=O)Nc3ccccc32)Nc2ccccc21)N[C@@H]1CCNC1 , what pIC50 is on record?
a: 9.70

q: State the recorded pIC50 for this entry: CN1CCC(NC(=O)CO/N=C2/C(=C3/C(=O)Nc4ccc(Cl)cc43)Nc3ccccc32)CC1
a: 7.67

q: // returns reported pIC50 for input O=C(CO/N=C1/C(=C2/C(=O)Nc3ccc(Cl)cc32)Nc2ccccc21)NC1CCNCC1
a: 8.97

Okay, now this molecule:
q: Could you tell me which pIC50 is on file for O=C1Nc2ccc(F)cc2/C1=C1/Nc2ccccc2/C1=N\OCS(=O)(=O)N1CCNCC1 ?
a: 8.57
